# System: HEp-2 cells
# test_details: Cytotoxicity assay (MTT) in parallel with the antiviral assay
# Type: cell-based
# test_parameters: uninfected HEp-2 cells, 4 days incubation, MTT viability
Friendly reminder: MTT TD50 below 50 µM is Satisfied, at or above is Not satisfied.

{"columns": ["compound", "target_system", "category_label"],
 "data": [
  ["FC1(F)CCC(CN(Cc2cccn2-c2nncs2)Cc2cccn2-c2nncs2)CC1 [Example 23]", "HEp-2 cells", "Not satisfied"]
]}

In: In the record for FC(F)(F)c1ccc(CN(Cc2cccn2-c2nncs2)Cc2cccn2-c2nncs2)cc1 [Example 54] , is MTT TD50 less than 50 µM?
Out: Satisfied

In: In the record for c1cc(CN(CCC2(c3ccncc3)CC2)Cc2cccn2-c2nccs2)n(-c2nccs2)c1 [Example 66] , is MTT TD50 less than 50 µM?
Out: Satisfied

In: In the record for c1ccc(CN(Cc2cccn2-c2nncs2)Cc2cccn2-c2nncs2)cc1 [Example 10] , is MTT TD50 less than 50 µM?
Out: Not satisfied

In: In the record for c1cncc(C2(CN(Cc3cccn3-c3nccs3)Cc3cccn3-c3nccs3)CC2)c1 [Example 65] , is MTT TD50 less than 50 µM?
Out: Satisfied

The measured values listed here are drawn from patent US10233179B2.
